# Organism: Oryctolagus cuniculus
# test_description: Evaluation for antiviral activity in primary rabbit kidney cell culture
# Format: functional
# settings: read-out: Min cytotoxic concentration
recorded_endpoint: MCC (µg/mL)
// return numeric value only (unit: µg/mL, not printed)

Past entries and their recorded results:
Endpoint output: MCC of Cl.Cn1cc(NC(=O)c2cc(NC(=O)c3cc(N)cn3C)cn2C)cc1C(=O)NCCC(=N)N . Value? 100

Endpoint output: MCC of Cn1cc(NC(=O)CNC(=N)N)cc1C(=O)Nc1cn(C)c(C(=O)NCCC(=N)N)n1.O=S(=O)(O)O . Value? 200

Endpoint output: MCC of Nc1ncnc2c1ccn2[C@@H]1O[C@H](CO)[C@@H](O)[C@H]1O . Value? 0.4

***
Endpoint output: MCC of Cl.Cl.Cn1cc(NC(=O)c2cc(NC(=O)c3cc(NC=O)cn3C)cn2C)cc1C(=O)NCCC(=N)N . Value? 200

Endpoint output: MCC of Cl.Cn1cc(NC(=O)c2cc(N)cn2C)cc1C(=O)NCCC(=N)N . Value? 400

Endpoint output: MCC of Cl.Cn1cc(NC(=O)c2nc(NC(=O)c3nc(NC(=O)CNC(=N)N)cn3C)cn2C)nc1C(=O)NCCC(=N)N . Value? 100

Endpoint output: MCC of Cl.Cn1cc(NC(=O)c2cc(NC(=O)CNC(=N)N)cn2C)cc1C(=O)NCCC(=N)N [NETROPSIN CHLORIDE] . Value? 40

* * *

# System: L1210
# test_description: Evaluation for its inhibitory effect on proliferation of murine leukemia L1210 cells
# Assay type: functional
# settings: Mus musculus, read-out: ID50 (the source's name)
recorded_endpoint: IC50

Past entries and their recorded results:
Endpoint output: IC50 of Cn1cc(NC(=O)c2nc(NC(=O)CNC(=N)N)cn2C)nc1C(=O)NCCC(=N)N.O=S(=O)(O)O . Value? 238 µg/mL

Endpoint output: IC50 of Cn1cc(NC(=O)c2cc(NC(=O)C[N+](C)(C)C)cn2C)cc1C(=O)NCCC(=N)N.[Cl-] . Value? 543 µg/mL

Endpoint output: IC50 of Cl.Cn1cc(NC(=O)c2nc(NC(=O)c3nc(NC(=O)CNC(=N)N)cn3C)cn2C)nc1C(=O)NCCC(=N)N . Value? 42 µg/mL

Endpoint output: IC50 of Cl.Cl.Cn1cc(NC(=O)c2cc(NC(=O)c3cc(NC=O)cn3C)cn2C)cc1C(=O)NCCC(=N)N . Value? 27 µg/mL

Endpoint output: IC50 of Cn1cc(NC(=O)CNC(=N)N)cc1C(=O)Nc1cn(C)c(C(=O)NCCC(=N)N)n1.O=S(=O)(O)O . Value? > 100 µg/mL

Endpoint output: IC50 of Cl.Cn1cc(NC(=O)c2nc(NC(=O)CNC(=N)N)cn2C)cc1C(=O)NCCC(=N)N . Value? > 100 µg/mL

Endpoint output: IC50 of Cl.Cn1cc(NC(=O)c2cc(NC(=O)CNC(=N)N)cn2C)cc1C(=O)NCCC(=N)N [NETROPSIN CHLORIDE] . Value? 245 µg/mL

Endpoint output: IC50 of Cl.Cn1cc(NC(=O)c2cc(N)cn2C)cc1C(=O)NCCC(=N)N . Value? 276 µg/mL

Endpoint output: IC50 of CC[N+](CC)(CC)CC(=O)Nc1cc(C(=O)Nc2cc(C(=O)NCCC(=N)N)n(C)c2)n(C)c1.[Cl-] . Value? 222 µg/mL

***
Endpoint output: IC50 of Cl.Cn1cc(NC(=O)c2cc(NC(=O)c3cc(N)cn3C)cn2C)cc1C(=O)NCCC(=N)N [DEFORMYLDISTAMYCIN] . Value? 174 µg/mL

* * *

# Species on record: Homo sapiens
# test_description: Evaluation for its inhibitory effect on proliferation of human lymphoblast namalva cells
# Format: functional
# settings: read-out: ID50 (the source's name)
recorded_endpoint: IC50

Endpoint output: IC50 of Cl.Cl.Cn1cc(NC(=O)c2cc(NC(=O)c3cc(NC=O)cn3C)cn2C)cc1C(=O)NCCC(=N)N . Value? 22 µg/mL

Endpoint output: IC50 of Cl.Cn1cc(NC(=O)c2nc(NC(=O)CNC(=N)N)cn2C)cc1C(=O)NCCC(=N)N . Value? > 100 µg/mL

Endpoint output: IC50 of Cn1cc(NC(=O)CNC(=N)N)cc1C(=O)Nc1cn(C)c(C(=O)NCCC(=N)N)n1.O=S(=O)(O)O . Value? > 100 µg/mL

Endpoint output: IC50 of Cl.Cn1cc(NC(=O)c2cc(N)cn2C)cc1C(=O)NCCC(=N)N . Value? 36 µg/mL

***
Endpoint output: IC50 of Cl.Cn1cc(NC(=O)c2cc(NC(=O)CNC(=N)N)cn2C)cc1C(=O)NCCC(=N)N [NETROPSIN CHLORIDE] . Value? 103 µg/mL

* * *

# Organism: Homo sapiens
# test_description: Evaluation for its inhibitory effect on proliferation of human lymphoblast namalva cells
# Type: functional
# settings: read-out: ID50 (the source's name)
recorded_endpoint: IC50 (µg/mL)
// return numeric value only (unit: µg/mL, not printed)

Endpoint output: IC50 of Cn1cc(NC(=O)c2nc(NC(=O)CNC(=N)N)cn2C)nc1C(=O)NCCC(=N)N.O=S(=O)(O)O . Value? 261

Endpoint output: IC50 of CC[N+](CC)(CC)CC(=O)Nc1cc(C(=O)Nc2cc(C(=O)NCCC(=N)N)n(C)c2)n(C)c1.[Cl-] . Value? 180

Endpoint output: IC50 of Cl.Cn1cc(NC(=O)c2nc(NC(=O)c3nc(NC(=O)CNC(=N)N)cn3C)cn2C)nc1C(=O)NCCC(=N)N . Value? 100

In the following, a different compound is considered.
Endpoint output: IC50 of Cl.Cn1cc(NC(=O)c2cc(NC(=O)c3cc(N)cn3C)cn2C)cc1C(=O)NCCC(=N)N . Value? 29
